Molecular target: NOD2 (Homo sapiens, UniProt Q9HC29)
Sequence (Q9HC29 whole entry): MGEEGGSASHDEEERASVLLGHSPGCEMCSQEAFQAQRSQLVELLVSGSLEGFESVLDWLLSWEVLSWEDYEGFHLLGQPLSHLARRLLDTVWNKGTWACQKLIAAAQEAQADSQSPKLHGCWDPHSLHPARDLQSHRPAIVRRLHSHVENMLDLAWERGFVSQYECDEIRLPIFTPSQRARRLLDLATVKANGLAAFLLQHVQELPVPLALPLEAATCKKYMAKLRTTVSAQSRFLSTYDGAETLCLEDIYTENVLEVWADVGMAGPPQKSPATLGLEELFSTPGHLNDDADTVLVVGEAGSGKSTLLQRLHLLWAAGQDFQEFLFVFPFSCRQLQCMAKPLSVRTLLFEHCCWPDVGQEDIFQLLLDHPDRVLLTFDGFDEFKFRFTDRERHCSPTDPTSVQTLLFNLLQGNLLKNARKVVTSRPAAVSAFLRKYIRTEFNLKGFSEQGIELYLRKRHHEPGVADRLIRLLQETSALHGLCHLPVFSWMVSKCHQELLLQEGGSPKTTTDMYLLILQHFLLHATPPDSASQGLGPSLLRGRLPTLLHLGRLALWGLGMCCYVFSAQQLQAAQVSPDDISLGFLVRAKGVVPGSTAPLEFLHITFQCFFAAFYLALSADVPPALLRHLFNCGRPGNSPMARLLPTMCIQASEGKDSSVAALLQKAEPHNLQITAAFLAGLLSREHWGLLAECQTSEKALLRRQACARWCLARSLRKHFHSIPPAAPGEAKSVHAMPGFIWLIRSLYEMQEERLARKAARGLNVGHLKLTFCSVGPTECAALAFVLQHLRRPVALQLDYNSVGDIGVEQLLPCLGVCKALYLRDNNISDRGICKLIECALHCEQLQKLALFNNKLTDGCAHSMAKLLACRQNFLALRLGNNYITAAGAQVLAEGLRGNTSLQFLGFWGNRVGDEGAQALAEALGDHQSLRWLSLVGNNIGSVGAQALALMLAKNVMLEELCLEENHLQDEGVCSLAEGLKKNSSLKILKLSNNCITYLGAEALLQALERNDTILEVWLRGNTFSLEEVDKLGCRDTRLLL
Test: MDP-stimulated IL-8 release in 293/hNOD2 cells
Conditions: HEK293 stably expressing human NOD2, IL-8 released into medium
pIC50: −log10 of the molar value.
assay-metric: pIC50

Give the measured pIC50 of CCc1ccc(S(=O)(=O)Nc2cc(-n3c(C)nc4ccccc4c3=O)ccc2F)s1 [GSK223] .
< 4.30

Give the measured pIC50 of Cc1ccc(S(=O)(=O)Nc2cccc(C(=O)Nc3ccc4nc(C)sc4c3)c2)cc1 [Compound 16] .
< 4.52

Give the measured pIC50 of Cn1c(=O)[nH]c(=O)c2c1nc(CCSc1ccccc1)n2Cc1ccccc1 [SB711] .
< 4.30

Give the measured pIC50 of Cc1nc2ccccc2c(=O)n1-c1ccc(Cl)c(NS(=O)(=O)c2ccccc2F)c1 [Compound 22] .
< 4.30

* * *

Target: TNFR1 (Homo sapiens)
Construct: TNFR1 (TNFα stimulated IL-8 secretion in 293/hNOD1 cells)
Sequence (P19438 30-455): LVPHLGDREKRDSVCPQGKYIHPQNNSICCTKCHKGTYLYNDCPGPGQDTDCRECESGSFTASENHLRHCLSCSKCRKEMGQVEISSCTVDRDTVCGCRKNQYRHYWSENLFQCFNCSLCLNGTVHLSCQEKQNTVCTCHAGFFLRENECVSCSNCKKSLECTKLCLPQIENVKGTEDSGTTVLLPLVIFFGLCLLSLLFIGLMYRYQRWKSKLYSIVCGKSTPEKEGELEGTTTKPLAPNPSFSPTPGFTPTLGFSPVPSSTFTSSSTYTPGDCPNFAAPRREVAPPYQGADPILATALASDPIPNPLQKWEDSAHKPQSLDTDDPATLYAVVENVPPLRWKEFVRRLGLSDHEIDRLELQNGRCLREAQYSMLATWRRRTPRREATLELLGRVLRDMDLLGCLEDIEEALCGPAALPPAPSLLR
Experiment: TNFα-stimulated IL-8 release in 293/hNOD1 cells
Conditions: IL-8 released into medium
Procedure: Inhibitors of iE-DAP-stimulated IL-8 release were screened in a 1536-well assay in which 293/hNOD1 cells (5000 cells/well) in DMEM high glucose medium supplemented with 0.1% FBS and 10 µg/mL Blasticidin S were stimulated with 60 ng/mL (200 nM) iE-DAP (EC80) in the presence of 10 µM compounds. […] Fluorescence was measured after 2 hours in a ViewLux imager using UMB-AMC excitation and 618–671 nm emission filters (Perkin Elmer). […]
assay-metric: IC50

1) Cc1ccc(S(=O)(=O)Nc2cccc(C(=O)Nc3ccc4nc(C)sc4c3)c2)cc1: > 30 µM

Give the measured IC50 of Cc1nc2ccc(NC(=O)c3cccc(NS(=O)(=O)c4ccc(F)cc4)c3)cc2s1 .
> 50 µM

Give the measured IC50 of CCc1ccc(S(=O)(=O)Nc2cc(-n3c(C)nc4ccccc4c3=O)ccc2F)s1 .
> 50 µM

Give the measured IC50 of Cn1c(=O)[nH]c(=O)c2c1nc(CCSc1ccccc1)n2Cc1ccccc1 .
> 50 µM

Give the measured IC50 of Cc1nc2ccccc2c(=O)n1-c1ccc(Cl)c(NS(=O)(=O)c2ccccc2F)c1 .
> 50 µM

* * *

Biological target: NOD1 (Homo sapiens, UniProt Q9Y239)
Sequence (Q9Y239 whole entry): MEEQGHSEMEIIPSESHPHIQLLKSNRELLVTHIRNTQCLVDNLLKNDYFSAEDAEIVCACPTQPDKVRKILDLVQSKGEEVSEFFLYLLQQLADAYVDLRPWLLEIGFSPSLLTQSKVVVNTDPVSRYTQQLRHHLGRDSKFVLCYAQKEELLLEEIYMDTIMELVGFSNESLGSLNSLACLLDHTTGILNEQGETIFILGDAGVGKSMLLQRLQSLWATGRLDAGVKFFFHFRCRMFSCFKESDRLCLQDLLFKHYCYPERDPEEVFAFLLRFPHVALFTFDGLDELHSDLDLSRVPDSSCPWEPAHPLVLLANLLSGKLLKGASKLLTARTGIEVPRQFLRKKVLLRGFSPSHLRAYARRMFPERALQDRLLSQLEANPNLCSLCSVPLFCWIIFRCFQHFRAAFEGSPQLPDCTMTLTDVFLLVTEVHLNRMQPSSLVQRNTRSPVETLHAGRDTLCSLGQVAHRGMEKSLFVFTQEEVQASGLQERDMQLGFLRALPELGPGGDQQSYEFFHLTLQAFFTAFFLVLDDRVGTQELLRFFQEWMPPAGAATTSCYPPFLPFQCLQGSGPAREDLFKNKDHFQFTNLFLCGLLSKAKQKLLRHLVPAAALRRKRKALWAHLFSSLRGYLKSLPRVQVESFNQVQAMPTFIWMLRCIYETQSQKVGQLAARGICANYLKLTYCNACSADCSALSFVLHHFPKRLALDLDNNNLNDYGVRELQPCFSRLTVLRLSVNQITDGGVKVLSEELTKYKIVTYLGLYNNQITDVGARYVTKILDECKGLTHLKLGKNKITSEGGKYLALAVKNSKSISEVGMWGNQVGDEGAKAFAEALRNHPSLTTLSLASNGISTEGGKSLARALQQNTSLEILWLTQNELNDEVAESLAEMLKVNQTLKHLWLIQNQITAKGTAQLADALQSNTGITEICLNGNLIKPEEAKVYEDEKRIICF
Test: iE-DAP-stimulated IL-8 release in 293/hNOD1 cells
Format: cell-based
Details: HEK293 stably expressing human NOD1, IL-8 released into medium; read-out: IC50 293/hNOD1 iE-DAP
A collection of compounds and their measured log10 of IC50
Note: values are log10 of IC50 expressed in nM.

Take a look at these entries with their results.
1) Cc1nc2ccc(NC(=O)c3cccc(NS(=O)(=O)c4ccc(F)cc4)c3)cc2s1 [GSK966]: 3.54
2) Cc1nc2ccccc2c(=O)n1-c1ccc(F)c(NS(=O)(=O)c2ccccc2F)c1 [Compound 8]: 2.85

Give the measured log10 of IC50 of Cc1ccc(S(=O)(=O)Nc2cccc(C(=O)Nc3nc4ccc([N+](=O)[O-])cc4s3)c2)cc1 [Compound 15] .
2.30

Give the measured log10 of IC50 of Cn1c(=O)[nH]c(=O)c2c1nc(CCSc1ccccc1)n2Cc1ccccc1 [SB711] .
2.78

Give the measured log10 of IC50 of Cc1nc2ccccc2c(=O)n1-c1ccc(Cl)c(NS(=O)(=O)c2ccccc2F)c1 [Compound 22] .
1.78

* * *

Target: UniProtKB Q9Y239
Assay: iE-DAP-stimulated IL-8 release in 293/hNOD1 cells
Assay type: cell-based
Details: iE-DAP-stimulated IL-8 production in 293/hNOD1 cells; SAR figures; read-out: NOD1 XC50
Threshold-based label: IC50 under 2000 nM gives True, IC50 not under 2000 nM gives False.

Field: example entries. Status: answers known.
1. CC(=O)Nc1ccc2nc(NC(=O)c3cccc(NS(=O)(=O)c4ccc(C)cc4)c3)sc2c1: True
2. Cc1nc2ccccc2c(=O)n1-c1ccc(F)c(NS(=O)(=O)c2ccc(F)cc2F)c1: False
3. Cc1nc(C)n(-c2ccc(Cl)c(NS(=O)(=O)c3ccccc3F)c2)c(=O)c1C: False

Here's an entry: CCCCCCSc1nc2c(c(=O)[nH]c(=O)n2C)n1Cc1ccccc1 . Is its IC50 below 2000 nM?
False

Here's an entry: C/C=C/Cn1c(SCCc2ccccc2)nc2c1c(=O)[nH]c(=O)n2C . Is its IC50 below 2000 nM?
False

Here's an entry: Cc1ccc(S(=O)(=O)Nc2cc(-n3c(C)nc4ccccc4c3=O)ccc2Cl)cc1 . Is its IC50 below 2000 nM?
True

Here's an entry: Cc1ccc(S(=O)(=O)Nc2cccc(C(=O)Nc3ccc4nc(C)sc4c3)c2)cc1 . Is its IC50 below 2000 nM?
True

Here's an entry: Cc1nc2cc(Cl)ccc2c(=O)n1-c1ccc(Cl)c(NS(=O)(=O)c2ccccc2F)c1 . Is its IC50 below 2000 nM?
False

Here's an entry: Cc1nc2ccc(Cl)cc2c(=O)n1-c1ccc(Cl)c(NS(=O)(=O)c2ccccc2F)c1 . Is its IC50 below 2000 nM?
True

Here's an entry: Cc1cccc(CSc2nc3c(c(=O)[nH]c(=O)n3C)n2Cc2ccccc2)c1 . Is its IC50 below 2000 nM?
False

Here's an entry: Cc1ccc(S(=O)(=O)Nc2cccc(C(=O)Nc3ccc4nc(C)sc4c3)c2)c(F)c1 . Is its IC50 below 2000 nM?
True

* * *

Test system: NOD1-induced type I interferon response
Assay: Tri-DAP stimulated IP-10 secretion in HT-29 cells
Assay type: cell-based
Conditions: Homo sapiens; HT-29, 50 µg/mL Tri-DAP 24 hours
assay-metric: IC50 (nM)
Give the quantity in nM, number only.

1) Cc1ccc(S(=O)(=O)Nc2cccc(C(=O)Nc3ccc4nc(C)sc4c3)c2)cc1 [Compound 16]: 250

Now turn to the next compound.
Give the measured IC50 of Cc1nc2ccccc2c(=O)n1-c1ccc(Cl)c(NS(=O)(=O)c2ccccc2F)c1 [Compound 22] .
80

* * *

Target: human serum albumin (Homo sapiens, UniProt P02768)
Sequence (P02768 25-609): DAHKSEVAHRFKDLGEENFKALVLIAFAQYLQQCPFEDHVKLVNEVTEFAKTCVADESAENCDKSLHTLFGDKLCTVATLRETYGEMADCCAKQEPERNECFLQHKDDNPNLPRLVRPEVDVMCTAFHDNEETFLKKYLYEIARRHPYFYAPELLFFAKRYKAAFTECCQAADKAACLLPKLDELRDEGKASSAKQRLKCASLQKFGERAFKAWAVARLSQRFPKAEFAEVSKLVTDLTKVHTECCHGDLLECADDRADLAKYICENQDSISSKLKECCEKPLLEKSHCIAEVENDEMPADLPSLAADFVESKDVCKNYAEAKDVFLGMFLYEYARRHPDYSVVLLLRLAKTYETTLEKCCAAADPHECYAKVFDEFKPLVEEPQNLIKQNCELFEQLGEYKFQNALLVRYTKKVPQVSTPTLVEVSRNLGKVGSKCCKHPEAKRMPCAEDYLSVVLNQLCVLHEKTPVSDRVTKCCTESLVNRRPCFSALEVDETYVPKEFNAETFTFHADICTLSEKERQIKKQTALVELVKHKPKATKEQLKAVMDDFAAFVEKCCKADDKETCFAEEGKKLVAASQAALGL
Test: Human serum albumin (HSA) binding
Type: in vitro ADME
assay-metric: HSA binding (%)
Give the quantity in %, number only.

Take a look at these entries with their results.
1. Cc1nc2ccc(NC(=O)c3cccc(NS(=O)(=O)c4ccc(F)cc4)c3)cc2s1: 97.14
2. Cc1ccc(S(=O)(=O)Nc2cccc(C(=O)Nc3ccc4nc(C)sc4c3)c2)cc1: 97.2
3. CCc1ccc(S(=O)(=O)Nc2cc(-n3c(C)nc4ccccc4c3=O)ccc2F)s1: 97.38
4. Cn1c(=O)[nH]c(=O)c2c1nc(CCSc1ccccc1)n2Cc1ccccc1: 95.94
5. Cc1nc2ccccc2c(=O)n1-c1ccc(F)c(NS(=O)(=O)c2ccccc2F)c1: 96.05

// fetch human serum albumin (Homo sapiens, UniProt P02768) HSA binding for O=C(Nc1ccc2c(c1)OCO2)c1cccc(NS(=O)(=O)c2ccc(Cl)cc2)c1
98.01

// fetch human serum albumin (Homo sapiens, UniProt P02768) HSA binding for Cc1nc2ccccc2c(=O)n1-c1ccc(F)c(NS(=O)(=O)c2cccs2)c1
96.08

* * *

A collection of compounds and their measured log10(solubility)
Experiment: CLND solubility
Assay type: physicochemical
Details: phosphate buffered saline with 5% DMSO, pH 7.4, aqueous buffer, kinetic from dmso stock; 5% DMSO pH7.4 phosphate buffered saline
Note: values are log10 of solubility expressed in µM.

Take a look at these entries with their results.
1) Cn1c(=O)[nH]c(=O)c2c1nc(CCSc1ccccc1)n2Cc1ccccc1 [SB711]: 0.30
2) Cc1nc2ccc(NC(=O)c3cccc(NS(=O)(=O)c4ccc(F)cc4)c3)cc2s1 [GSK966]: 1.61
3) CCc1ccc(S(=O)(=O)Nc2cc(-n3c(C)nc4ccccc4c3=O)ccc2F)s1 [GSK223]: 2.51

Give the measured log10(solubility) of O=C(Nc1ccc2c(c1)OCO2)c1cccc(NS(=O)(=O)c2ccc(Cl)cc2)c1 [Compound 21] .
1.66

Give the measured log10(solubility) of Cc1nc2ccccc2c(=O)n1-c1ccc(F)c(NS(=O)(=O)c2ccccc2F)c1 [Compound 8] .
2.59

Give the measured log10(solubility) of Cc1nc2ccccc2c(=O)n1-c1ccc(F)c(NS(=O)(=O)c2cccs2)c1 [Compound 13] .
2.63

Give the measured log10(solubility) of Cc1ccc(S(=O)(=O)Nc2cccc(C(=O)Nc3ccc4nc(C)sc4c3)c2)cc1 [Compound 16] .
1.15

* * *

Biological target: UniProtKB Q9Y239
Assay: Tri-DAP-stimulated IL-8 secretion in primary human monocytes
Assay type: cell-based
Design: Monocytes were purified from heparinized human whole blood; endogenous in cells; host or cells: primary human blood monocytes
Settings: human primary peripheral blood monocytes, IL-8 released into medium; read-out: IC50 Monocyte Tri-DAP
A collection of molecules and their measured pIC50
pIC50 is a log-scale quantity: -log10 of the concentration expressed in molar.

1. Cc1nc2ccc(NC(=O)c3cccc(NS(=O)(=O)c4ccc(F)cc4)c3)cc2s1: 5.70
2. Cc1ccc(S(=O)(=O)Nc2cccc(C(=O)Nc3ccc4nc(C)sc4c3)c2)cc1: 6.70

Give the measured pIC50 of Cn1c(=O)[nH]c(=O)c2c1nc(CCSc1ccccc1)n2Cc1ccccc1 .
5.49

Give the measured pIC50 of Cc1nc2ccccc2c(=O)n1-c1ccc(Cl)c(NS(=O)(=O)c2ccccc2F)c1 .
7.22

Give the measured pIC50 of CCc1ccc(S(=O)(=O)Nc2cc(-n3c(C)nc4ccccc4c3=O)ccc2F)s1 .
6.00
